study_target: Androgen receptor (Homo sapiens)
assay: qHTS assay to identify small molecule antagonists of the androgen receptor (AR) signaling pathway using the MDA cell line in the presence of 0.5 nM R1881 (AID 1259243); note: nearly all actives have a fitted effect of over 50% in size
test_settings: MDA-kb2 MMTV-luciferase, R1881 0.5 nM, 16 h; series mostly up to 42.5 µM
Results filed as inconclusive are left out. The source made the active and inactive calls. Calls come from the whole dose curve; as a rule, active = well fitted inhibition curve with a large enough effect in the repeat runs; inconclusive = weak or mixed curves; inactive = no such curve, though single readings can be large or run the other way.
Form entry, call: pick from active, inactive

Consider the following illustrative entries.
O=C1CCCCCCCCCCCC(=O)OCCO1
inactive
CN(C)CCOC(c1ccccc1)c1ccc(Br)cc1 (stereo unspecified)
inactive
O=CC1CC=CCC1 (stereo unspecified)
inactive
CC(=O)OC[C@H]1O[C@@H](n2ncc(=O)[nH]c2=O)[C@H](OC(C)=O)[C@@H]1OC(C)=O
inactive
O=C1OC(CN2CCOCC2)CN1/N=C/c1ccc([N+](=O)[O-])o1 (stereo unspecified)
active
C[C@@H]1C[C@H]2O[C@@]3(O[C@@H]2C(C)(C)O)[C@H](O)[C@@]2(C)[C@@H]4CC[C@H]5C(C)(C)[C@@H](O[C@@H]6OC[C@@H](O)[C@H](O)[C@H]6O)CC[C@@]56C[C@@]46CC[C@]2(C)[C@@H]13
inactive
Cc1nn(C)c(Oc2ccccc2)c1/C=N/OCc1ccc(C(=O)OC(C)(C)C)cc1
active
OCCNCc1ccccc1
inactive

input: Hello, I am checking results. What call was entered for COc1ccc(-c2nc3ccc(C4=NNC(=O)CC4C)cc3[nH]2)cc1 (stereo unspecified) ?
output: inactive

input: Can you look up the reported call for `CC(C)CC(=O)C1C(=O)c2ccccc2C1=O` for me?
output: active

input: Tell me the assay call for `CN(C)CCN(Cc1ccsc1)c1ccccn1` please.
output: inactive

input: Could you please tell me the result logged for `Nc1cccc([N+](=O)[O-])c1` in this assay?
output: inactive

input: Give the logged outcome of this assay for the following compound: `CCOC(=O)C(=O)CCc1ccccc1`
output: inactive

input: Identify the outcome logged in this assay for the compound shown: `Cc1cccc(C)c1OCC(=O)N[C@@H](Cc1ccccc1)[C@@H](O)C[C@H](Cc1ccccc1)NC(=O)[C@H](C(C)C)N1CCCNC1=O`
output: active
